Reference source for all entries: the RNAGym collection of RNA variant scans (doi:10.7554/elife.90254)

Attribute: self-cleavage
B1: LINE1-mini (parent)
chain: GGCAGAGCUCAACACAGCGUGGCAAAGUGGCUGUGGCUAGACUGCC

variants of: B1; test: self-cleavage, relative activity (ratio to wild type); higher = more cleavage; in vitro, sequencing; the parent is a self-cleaving ribozyme
Respond using a number only.

Reference set, count: 4
sequence.code | self-cleavage
GGCAGAGCUCAACACAGCGUCGCAAAGCGGCUGUGGCUAGACUGCC | 1.39
GGCAGAGCUCAACACAGCGUAGCAAAGUGGCUGUGUCUAGACUGCC | 0.15
GGCAGAGCUCAACACAGCGUGGCAAAAUGGCUAUGGCUAGACUGCC | 0.1
GGCAGAACUCAACACAGCGUGGCAAAGUGGCUGUGGCUAGUCUGCC | 0.18

Query: Specify reported self-cleavage for the variant shown: GGCAGAGCUCAACACAGCGUGGCAAAGUGGCUAUGGCUAUACUGCC
Result: 0.09

Query: Specify reported self-cleavage for the variant shown: GGCAGAGCUGAACACAGCGUGGCAAAGUGGCUGUCGCUAGACUGCC
Result: 0.02

Query: Specify reported self-cleavage for the variant shown: CGCAGAGCUCAACACAGCGUGGCAAGGUGGCUGUGGCUAGACUGCC
Result: 0.09

Query: Specify reported self-cleavage for the variant shown: GGCAGAGCUCAACACACCGUGGCAAAGUGGCUGUGGCCAGACUGCC
Result: 0.15

Query: Specify reported self-cleavage for the variant shown: GGCAGAGCUCAACAGAGCGUGGCAAAGUGGCUGUGGCUAGAGUGCC
Result: 0.1

Query: Specify reported self-cleavage for the variant shown: GGCAGAGCUCGACACAGCGUGGCAAAGUGGCUAUGGCUAGACUGCC
Result: 0.03

Query: Specify reported self-cleavage for the variant shown: GGCAGAGCUCAACACAGCGUGGCAAAGUGGCUGUAGCUAGACUGCG
Result: 0.15
